# method_description: Metabolic stability in human hepatic microsome
# Assay type: in vitro ADME
# condition_set: microsomes, pH 7.4; human hepatic microsome, NADPH(+); read-out: CL NADPH(+)
Starred links: 1 amine or outer side, 2 acyl side, 3 side chain; linkers in the order of their positions; H or OH if unused. Positions of bridges follow the written chain, without caps; N, C: chain ends. Non-standard residues stand in square brackets, D forms with d. Residues, ends and D or L forms follow the SMILES beside them. ξ: configuration not given here. *: point of attachment. Phe(4-(CH2)5CO) = O=C([C@H](Cc1ccc(CCCCCC(=O)[*:3])cc1)N[*:1])[*:2]; Phe(3-(CH2)4CO) = O=C([C@H](Cc1cccc(CCCCC(=O)[*:3])c1)N[*:1])[*:2]; NMeF = CN[C@@H](Cc1ccccc1)C(=O)O; NMeI = CC[C@H](C)[C@H](NC)C(=O)O; NMeL = CN[C@@H](CC(C)C)C(=O)O; ξNMeF = CNC(Cc1ccccc1)C(=O)O; NMeA = CN[C@@H](C)C(=O)O; Piperidide = C1CCN(*)CC1; dNMeA = CN[C@H](C)C(=O)O; Sar = CNCC(=O)O
Record form. Attribute: microsomal CLint at 1 uM. Fill in for each entry.
One number for each entry, in µL/min/mg.

| compound | unit_symbol | microsomal CLint at 1 uM |
| --- | --- | --- |
| CC[C@H](C)[C@H]1C(=O)N[C@@H](CC(C)C)C(=O)N(C)[C@@H](C)C(=O)N(C)[C@@H](Cc2ccccc2)C(=O)NCC(=O)N[C@@H]([C@@H](C)O)C(=O)N[C@@H](Cc2ccccc2)C(=O)N(C)[C@@H](CC(C)C)C(=O)N2CCC[C@H]2C(=O)N[C@H](C(=O)N2CCCCC2)Cc2cccc(c2)CCCCC(=O)N[C@@H](CC(C)C)C(=O)N1C [DP-877] (L[NMeI]L[NMeA][NMeF]GTF[NMeL]P[Phe(3-(CH2)4CO)]-Piperidide; lactam N-11) | µL/min/mg | 43 |
| CC(C)C[C@@H]1NC(=O)[C@H]([C@@H](C)O)NC(=O)[C@@H]2CCCN2C(=O)CNC(=O)[C@H](CC(C)C)N(C)C(=O)[C@H](Cc2ccccc2)NC(=O)[C@H](CC(C)C)N(C)C(=O)[C@H](CC(C)C)N(C)C(=O)[C@H](Cc2ccccc2)NC(=O)CN(C)C(=O)C[C@@H](C(=O)N(C)C(Cc2ccccc2)C(=O)N[C@@H](C)C(=O)N2CCCCC2)NC1=O (some centres unmarked) [DP-185] ([Sar]F[NMeL][NMeL]F[NMeL]GPTLD[ξNMeF]A-Piperidide; lactam N-11) | µL/min/mg | 19 |
| C=C1CCC(=O)N[C@@H](CC(C)C)C(=O)N(C)[C@@H](CC(C)C)C(=O)N(C)[C@@H](Cc2ccccc2)C(=O)N[C@@H](C)C(=O)N(C)[C@@H](Cc2ccccc2)C(=O)N(C)[C@@H]([C@@H](C)CC)C(=O)N[C@@H]([C@@H](C)O)C(=O)N(C)CC(=O)N(C)[C@@H](CC(C)C)C(=O)N[C@H](C(=O)N2CCCCC2)Cc2cccc1c2 | µL/min/mg | 210 |
| CC(C)C[C@H]1C(=O)N[C@@H]([C@@H](C)O)C(=O)N(C)[C@@H](C)C(=O)N[C@H](C(=O)N(C)[C@@H](Cc2ccccc2)C(=O)N[C@@H](C)C(=O)N2CCCCC2)CC(=O)N(C)[C@H](C)C(=O)N(C)[C@@H](Cc2ccccc2)C(=O)N(C)[C@@H](C)C(=O)N[C@@H](C)C(=O)N(C)[C@@H](C)C(=O)N(C)[C@@H](Cc2ccccc2)C(=O)N1C [DP-353] ([dNMeA][NMeF][NMeA]A[NMeA][NMeF][NMeL]T[NMeA]D[NMeF]A-Piperidide; lactam N-10) | µL/min/mg | 13 |

# ---- query compound ----
Sample CC[C@H](C)[C@H]1C(=O)N[C@H](C(=O)N2CCCCC2)Cc2ccc(cc2)CCCCCC(=O)N[C@@H](CC(C)C)C(=O)N2CCC[C@H]2C(=O)N[C@@H](C(C)C)C(=O)N[C@@H](Cc2ccccc2)C(=O)N(C)CC(=O)N[C@@H](CC(C)C)C(=O)N[C@@H](C)C(=O)N1C [DP-879] (LPVF[Sar]LA[NMeI][Phe(4-(CH2)5CO)]-Piperidide; lactam N-9) — what was its microsomal CLint at 1 uM?
239

###

Consider the following molecules; for each one, report its Papp at 18 hours, 50 µM.
# method_description: PAMPA (parallel artificial membrane permeability assay)
# Assay type: in vitro ADME
# condition_set: PAMPA; membrane permeation rate (Pe); 50 mM MOPSO buffer pH 6.5 with 5.0% glycocholic acid, 37° C., 18 hours; read-out: iPAMPA Pe
Starred links: 1 amine or outer side, 2 acyl side, 3 side chain; linkers in the order of their positions; H or OH if unused. Positions of bridges follow the written chain, without caps; N, C: chain ends. Non-standard residues stand in square brackets, D forms with d. Residues, ends and D or L forms follow the SMILES beside them. *: point of attachment. NMeF = CN[C@@H](Cc1ccccc1)C(=O)O; NMeβAla = CN(CCC(=O)[*:2])[*:1]; NMeL = CN[C@@H](CC(C)C)C(=O)O; NMeV = CN[C@H](C(=O)O)C(C)C; NMeA = CN[C@@H](C)C(=O)O; Piperidide = C1CCN(*)CC1; dNMeA = CN[C@H](C)C(=O)O; β3hA = C[C@H](N)CC(=O)O
Answers are plain numbers, in ×10⁻⁶ cm/s.

Some solved entries appear below for comparison.
| molecule | Papp at 18 hours, 50 µM [×10⁻⁶ cm/s] |
| --- | --- |
| CC[C@H](C)[C@H](NC(=O)[C@H](CC(C)C)NC(=O)[C@H](CC(C)C)N(C)C(=O)[C@@H](NC(=O)[C@@H]1CCCN1C(=O)[C@@H]1CC(=O)N(C)CCC(=O)N[C@@H](CC(C)C)C(=O)N(C)[C@@H](CC(C)C)C(=O)N[C@@H]([C@@H](C)O)C(=O)N(C)[C@@H](C)C(=O)N[C@@H]([C@@H](C)CC)C(=O)N(C)[C@@H](CC(C)C)C(=O)N(C)[C@@H](CC(C)C)C(=O)N1)[C@@H](C)CC)C(=O)N1CCCCC1 [DP-937] ([NMeβAla]L[NMeL]T[NMeA]I[NMeL][NMeL]DPI[NMeL]LI-Piperidide; lactam N-9) | 0.47 |
| CC[C@H](C)[C@@H]1NC(=O)[C@H](CC(C)C)N(C)C(=O)[C@H](Cc2ccccc2)N(C)C(=O)[C@H](Cc2ccccc2)NC(=O)[C@H](C)N(C)C(=O)[C@H](CC(C)C)N(C)C(=O)[C@@H](C(C)C)NC(=O)C[C@@H](C(=O)N(C)[C@@H](CC(C)C)C(=O)N[C@H](C(=O)N(C)[C@@H](C)C(=O)N[C@H](C(=O)N2CCCCC2)[C@@H](C)CC)C(C)C)NC(=O)[C@H](CC(C)C)NC(=O)[C@H]([C@@H](C)O)NC1=O [DP-947] ([dV][NMeL][NMeA]F[NMeF][NMeL]ITLD[NMeL]V[NMeA]I-Piperidide; lactam N-10) | 0.1 |
| CC[C@H](C)[C@@H]1NC(=O)[C@H](C)N(C)C(=O)[C@H]([C@@H](C)O)NC(=O)[C@H](C(C)C)N(C)C(=O)[C@@H](C)N(C)C(=O)C[C@H](C)NC(=O)[C@H](Cc2ccccc2)NC(=O)[C@H](C)NC(=O)[C@H](Cc2ccccc2)N(C)C1=O [DP-819] (cyclo(AF[β3hA][dNMeA][NMeV]T[NMeA]I[NMeF])) | 30 |

// input: 2 molecules below; output: Papp at 18 hours, 50 µM for each
1. CC(C)C[C@H]1C(=O)N(C)[C@@H](CC(C)C)C(=O)N[C@H](C(=O)N2CCCCC2)CC(=O)N(C)[C@@H](C)C(=O)N(C)[C@@H](Cc2ccccc2)C(=O)N(C)[C@@H](CC(C)C)C(=O)N[C@@H]([C@@H](C)O)C(=O)N1C [DP-679] ([NMeA][NMeF][NMeL]T[NMeL][NMeL]D-Piperidide; lactam N-7)
2. CC(C)C[C@@H]1NC(=O)[C@H](Cc2ccccc2)N(C)C(=O)[C@H]([C@@H](C)O)NC(=O)[C@H](Cc2ccccc2)N(C)C(=O)[C@H](C)N(C)C(=O)[C@H](C)NC(=O)C[C@@H](C(=O)N2CCCCC2)NC1=O [DP-539] (A[NMeA][NMeF]T[NMeF]LD-Piperidide; lactam N-7)

1. 25
2. 20

###

Record form. Attribute: Papp at 18 hours, 50 µM. Fill in for each entry.
# method_description: PAMPA (parallel artificial membrane permeability assay)
# Type: in vitro ADME
# condition_set: PAMPA; membrane permeation rate (Pe); 50 mM MOPSO buffer pH 6.5 with 5.0% glycocholic acid, 37° C., 18 hours; read-out: iPAMPA Pe
Starred links: 1 amine or outer side, 2 acyl side, 3 side chain; linkers in the order of their positions; H or OH if unused. Positions of bridges follow the written chain, without caps; N, C: chain ends. Non-standard residues stand in square brackets, D forms with d. Residues, ends and D or L forms follow the SMILES beside them. *: point of attachment. NMeF = CN[C@@H](Cc1ccccc1)C(=O)O; NMeβAla = CN(CCC(=O)[*:2])[*:1]; NMeL = CN[C@@H](CC(C)C)C(=O)O; NMeA = CN[C@@H](C)C(=O)O; Piperidide = C1CCN(*)CC1; Sar = CNCC(=O)O; tBu = CC(C)(C)*
One number for each entry, in ×10⁻⁶ cm/s.

Give Papp at 18 hours, 50 µM for all molecules that follow.
1. CC(C)C[C@H]1C(=O)N[C@@H]([C@@H](C)O)C(=O)N[C@@H](C)C(=O)N(C)[C@@H](Cc2ccccc2)C(=O)N[C@H](C(=O)N2CCCCC2)CC(=O)N(C)[C@@H](C)C(=O)N(C)[C@@H](CC(C)C)C(=O)N[C@@H](Cc2ccccc2)C(=O)N1C [DP-700] ([NMeA][NMeL]F[NMeL]TA[NMeF]D-Piperidide; lactam N-8)
2. CC[C@H](C)[C@@H]1NC(=O)[C@H]([C@@H](C)O)NC(=O)[C@H](CC(C)C)NC(=O)[C@H](Cc2ccccc2)NC(=O)[C@H](CC(C)C)NC(=O)[C@H](C)NC(=O)C[C@@H](C(=O)N2CCCCC2)NC(=O)[C@H](Cc2ccccc2)NC(=O)[C@H](CC(C)C)NC(=O)[C@H](Cc2ccccc2)N(C)C1=O [DP-329] (ALFLTI[NMeF]LFD-Piperidide; lactam N-10)

1: 49; 2: 2.4

List Papp at 18 hours, 50 µM for every entry below, keeping the order given.
1. CC(C)C[C@@H]1NC(=O)[C@H]([C@@H](C)O)NC(=O)[C@H](Cc2ccccc2)N(C)C(=O)[C@H](CC(C)C)N(C)C(=O)[C@H](Cc2ccccc2)N(C)C(=O)[C@H](C)N(C)C(=O)[C@H](C)N(C)C(=O)[C@H](CC(C)C)N(C)C(=O)[C@@H](C)NC(=O)C[C@@H](C(=O)N2CCCCC2)NC1=O [DP-169] ([dA][NMeL][NMeA][NMeA][NMeF][NMeL][NMeF]TLD-Piperidide; lactam N-10)
2. C=C1CCC(=O)N[C@@H](CC(C)C)C(=O)N(C)[C@@H](CC(C)C)C(=O)N(C)[C@@H]([C@@H](C)CC)C(=O)N[C@@H](C)C(=O)N(C)[C@@H](Cc2ccccc2)C(=O)N[C@@H]([C@@H](C)O)C(=O)N(C)CC(=O)N(C)[C@@H](Cc2ccccc2)C(=O)N(C)[C@@H](CC(C)C)C(=O)N[C@H](C(=O)N2CCCCC2)Cc2ccc1cc2
3. CC(C)C[C@H]1C(=O)N[C@@H](Cc2ccccc2)C(=O)N[C@@H](COC(C)(C)C)C(=O)N(C)[C@@H](CC(C)C)C(=O)N(C)[C@@H](CC(C)C)C(=O)N[C@@H]([C@@H](C)O)C(=O)N[C@H](C(=O)N2CCCCC2)CC(=O)N(C)CCC(=O)N(C)[C@@H](Cc2ccccc2)C(=O)NCC(=O)N1C [DP-426] ([NMeβAla][NMeF]G[NMeL]FS(tBu)[NMeL][NMeL]TD-Piperidide; lactam N-10)
4. CC(C)C[C@@H]1NC(=O)[C@H](CC(C)C)N(C)C(=O)[C@H]([C@@H](C)O)NC(=O)[C@H](Cc2ccccc2)N(C)C(=O)CN(C)C(=O)[C@H](CC(C)C)N(C)C(=O)[C@@H](C(C)C)NC(=O)C[C@@H](C(=O)N2CCCCC2)NC1=O [DP-714] ([dV][NMeL][Sar][NMeF]T[NMeL]LD-Piperidide; lactam N-8)

1. 36
2. 2.3
3. 36
4. 31

The origin of these recorded values is patent US9409952B2.
